Below is a list of entries, each paired with its recorded % Degradation At 0.3 μM value.
molecular target: ERα (Homo sapiens (Human)); assay: Estrogen receptor degradation activity: breast cancer cell ERα in cell western assay; assay type: cell-based; settings: MCF7 cells, 0.3 μM, 4 hours; normalised to fulvestrant 0.1 μM and DMSO
Quick note: unit goes after the number.

Some solved entries appear below for comparison.
Molecule: O=C(O)c1ccc2c(c1)CCCC(c1c(Cl)cccc1OC(F)(F)F)=C2c1ccc(C=C2CN(CCCF)C2)cc1
% Degradation At 0.3 μM: 91%
--
Molecule: O=C(O)c1ccc2c(c1)CCCC(c1ccc(C(F)F)cc1OC(F)(F)F)=C2c1ccc(C=C2CN(CCCF)C2)cc1
% Degradation At 0.3 μM: 95%

Q) Give the reported % Degradation At 0.3 μM for this molecule. COc1cc(C)cc(C)c1C1=C(c2ccc(C=C3CN(CCCF)C3)cc2)c2ccc(C(=O)O)cc2CCC1
A) 91%

Q) Give the reported % Degradation At 0.3 μM for this molecule. COc1ccc(C2=C(c3ccc(C=C4CN(CCCF)C4)cc3)c3ccc(C(=O)O)cc3CCC2)cc1OC
A) 95%

Q) Give the reported % Degradation At 0.3 μM for this molecule. COc1cccc(C)c1C1=C(c2ccc(C=C3CN(CCCF)C3)cc2)c2ccc(C(=O)O)cc2CCC1
A) 90%

Q) Give the reported % Degradation At 0.3 μM for this molecule. O=C(O)c1ccc2c(c1)CCCC(c1c(F)cccc1OC(F)(F)F)=C2c1ccc(C=C2CN(CCCF)C2)cc1
A) 96%

Q) Give the reported % Degradation At 0.3 μM for this molecule. Cc1cccc(C(F)(F)F)c1C1=C(c2ccc(C=C3CN(CCCF)C3)cc2)c2ccc(C(=O)O)cc2CCC1
A) 92%

---

molecular target: ERα (Homo sapiens (Human), UniProt P03372); experiment: Estrogen receptor degradation activity: breast cancer cell ERα in cell western assay; format: cell-based; conditions: MCF7 cells, 0.3 μM, 4 hours; normalised to fulvestrant 0.1 μM and DMSO
Sequence (P03372 whole entry): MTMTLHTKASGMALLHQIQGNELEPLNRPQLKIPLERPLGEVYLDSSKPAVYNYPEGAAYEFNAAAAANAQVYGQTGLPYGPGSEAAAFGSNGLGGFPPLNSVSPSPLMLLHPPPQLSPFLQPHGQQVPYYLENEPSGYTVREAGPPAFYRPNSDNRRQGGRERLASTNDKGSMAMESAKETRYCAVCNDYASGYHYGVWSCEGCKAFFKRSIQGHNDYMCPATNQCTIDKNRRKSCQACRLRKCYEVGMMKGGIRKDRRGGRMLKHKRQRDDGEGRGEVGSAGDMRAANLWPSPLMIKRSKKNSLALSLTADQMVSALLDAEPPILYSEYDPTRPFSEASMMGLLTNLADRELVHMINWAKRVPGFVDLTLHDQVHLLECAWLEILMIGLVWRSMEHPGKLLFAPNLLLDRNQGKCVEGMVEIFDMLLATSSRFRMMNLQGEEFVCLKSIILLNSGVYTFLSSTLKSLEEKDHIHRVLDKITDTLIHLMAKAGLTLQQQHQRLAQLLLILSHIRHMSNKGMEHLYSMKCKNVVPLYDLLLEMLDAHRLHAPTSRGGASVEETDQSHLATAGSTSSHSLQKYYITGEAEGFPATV
If the reported % Degradation At 0.3 μM equals or exceeds 90%, assign Condition met. If not, assign Condition not met.

Observe how each entry below is paired with its result.
Molecule: COc1ccc(C2=C(c3ccc(C=C4CN(CCCF)C4)cc3)c3ccc(C(=O)O)cc3CCC2)c(C(F)(F)F)c1
Class Assignment: Condition met
//
Molecule: Cc1c(C2=C(c3ccc(C=C4CN(CCCF)C4)cc3)c3ccc(C(=O)O)cc3CCC2)ccc(C(F)(F)F)c1F
Class Assignment: Condition not met

Q) Does % Degradation At 0.3 μM meet or surpass 90% for CCc1c(C2=C(c3ccc(C=C4CN(CCCF)C4)cc3)c3ccc(C(=O)O)cc3CCC2)cccc1C(F)(F)F ?
A) Condition met

Q) Does % Degradation At 0.3 μM meet or surpass 90% for Cc1cc(C)c(C2=C(c3ccc(C=C4CN(CCCF)C4)cc3)c3ccc(C(=O)O)cc3CCC2)c(F)c1 ?
A) Condition met

---

Below is a list of entries, each paired with its recorded % Degradation At 0.3 μM value.
target: ERα (Homo sapiens (Human), UniProt P03372); experiment: Estrogen receptor degradation activity: breast cancer cell ERα in cell western assay; format: cell-based; conditions: MCF7 cells, 0.3 μM, 4 hours; normalised to fulvestrant 0.1 μM and DMSO

Some solved entries appear below for comparison.
Compound: CC1(C)CCC(C2=C(c3ccc(C=C4CN(CCCF)C4)cc3)c3ccc(C(=O)O)cc3CCC2)CC1
Subject Of Test: ERα (Homo sapiens (Human), UniProt P03372)
% Degradation At 0.3 μM: 86%

Compound: O=C(O)c1ccc2c(c1)CCCC(c1cccc3c1CCCO3)=C2c1ccc(C=C2CN(CCCF)C2)cc1
Subject Of Test: ERα (Homo sapiens (Human), UniProt P03372)
% Degradation At 0.3 μM: 96%

Compound: O=C(O)c1ccc2c(c1)CCCC(C1CC13CCC3)=C2c1ccc(C=C2CN(CCCF)C2)cc1 (single isomer, unassigned) [Compound 36]
Subject Of Test: ERα (Homo sapiens (Human), UniProt P03372)
% Degradation At 0.3 μM: 92%

Q) Give the reported % Degradation At 0.3 μM for this compound. Cc1cc(C2=C(c3ccc(C=C4CN(CCCF)C4)cc3)c3ccc(C(=O)O)cc3CCC2)c(C)cc1F
A) 93%

Q) Give the reported % Degradation At 0.3 μM for this compound. Cc1cc(C2=C(c3ccc(C=C4CN(CCCF)C4)cc3)c3ccc(C(=O)O)cc3CCC2)ccc1C(F)(F)F
A) 91%

Q) Give the reported % Degradation At 0.3 μM for this compound. COc1cccc(C(F)(F)F)c1C1=C(c2ccc(C=C3CN(CCCF)C3)cc2)c2ccc(C(=O)O)cc2CCC1
A) 91%

Q) Give the reported % Degradation At 0.3 μM for this compound. COc1c(Cl)cccc1C1=C(c2ccc(C=C3CN(CCCF)C3)cc2)c2ccc(C(=O)O)cc2CCC1
A) 93%

Q) Give the reported % Degradation At 0.3 μM for this compound. CCc1cccc(CC)c1C1=C(c2ccc(C=C3CN(CCCF)C3)cc2)c2ccc(C(=O)O)cc2CCC1
A) 90%

Q) Give the reported % Degradation At 0.3 μM for this compound. CCc1cccc(C2=C(c3ccc(C=C4CN(CCCF)C4)cc3)c3ccc(C(=O)O)cc3CCC2)c1C(F)(F)F
A) 93%

Q) Give the reported % Degradation At 0.3 μM for this compound. COc1cccc(F)c1C1=C(c2ccc(C=C3CN(CCCF)C3)cc2)c2ccc(C(=O)O)cc2CCC1
A) 94%

Q) Give the reported % Degradation At 0.3 μM for this compound. Cc1ccc(C2=C(c3ccc(C=C4CN(CCCF)C4)cc3)c3ccc(C(=O)O)cc3CCC2)c(C(F)F)c1
A) 91%

Q) Give the reported % Degradation At 0.3 μM for this compound. Cc1ccc(C2=C(c3ccc(C=C4CN(CCCF)C4)cc3)c3ccc(C(=O)O)cc3CCC2)c(C)c1F
A) 92%

Q) Give the reported % Degradation At 0.3 μM for this compound. O=C(O)c1ccc2c(c1)CCCC(c1cccc(F)c1CF)=C2c1ccc(C=C2CN(CCCF)C2)cc1
A) 90%

Q) Give the reported % Degradation At 0.3 μM for this compound. O=C(O)c1ccc2c(c1)CCCC(c1cccc(C(F)(F)F)c1C(F)(F)F)=C2c1ccc(C=C2CN(CCCF)C2)cc1
A) 100%

Q) Give the reported % Degradation At 0.3 μM for this compound. O=C(O)c1ccc2c(c1)CCCC(c1ccc(Cl)cc1Cl)=C2c1ccc(C=C2CN(CC(F)CF)C2)cc1 (single isomer, unassigned) [Compound 70]
A) 81%

Q) Give the reported % Degradation At 0.3 μM for this compound. COc1ccc(C2=C(c3ccc(C=C4CN(CCCF)C4)cc3)c3ccc(C(=O)O)cc3CCC2)c(C(F)F)c1
A) 91%

Q) Give the reported % Degradation At 0.3 μM for this compound. Cc1cc(C)c(C2=C(c3ccc(C=C4CN(CCCF)C4)cc3)c3ccc(C(=O)O)cc3CCC2)c(C)c1
A) 93%

Q) Give the reported % Degradation At 0.3 μM for this compound. O=C(O)c1ccc2c(c1)CCCC(c1ccccc1CF)=C2c1ccc(C=C2CN(CCCF)C2)cc1
A) 91%

Q) Give the reported % Degradation At 0.3 μM for this compound. O=C(O)c1ccc2c(c1)CCCC(c1cccc(F)c1OC(F)F)=C2c1ccc(C=C2CN(CCCF)C2)cc1
A) 91%

Q) Give the reported % Degradation At 0.3 μM for this compound. O=C(O)c1ccc2c(c1)CCCC(c1ccc(F)c(F)c1C(F)(F)F)=C2c1ccc(C=C2CN(CCCF)C2)cc1
A) 90%

Q) Give the reported % Degradation At 0.3 μM for this compound. COc1cccc(C2=C(c3ccc(C=C4CN(CCCF)C4)cc3)c3ccc(C(=O)O)cc3CCC2)c1C
A) 91%

Q) Give the reported % Degradation At 0.3 μM for this compound. Cc1cc(C)c(C2=C(c3ccc(C=C4CN(CCCF)C4)cc3)c3ccc(C(=O)O)cc3CCC2)c(C(F)(F)F)c1
A) 100%

Q) Give the reported % Degradation At 0.3 μM for this compound. COc1c(F)ccc(C)c1C1=C(c2ccc(C=C3CN(CCCF)C3)cc2)c2ccc(C(=O)O)cc2CCC1
A) 94%

Q) Give the reported % Degradation At 0.3 μM for this compound. CCc1cc(C)cc(CC)c1C1=C(c2ccc(C=C3CN(CCCF)C3)cc2)c2ccc(C(=O)O)cc2CCC1
A) 105%

---

biological target: ERα (Homo sapiens (Human)); assay: Estrogen receptor degradation activity: breast cancer cell ERα in cell western assay; details: MCF7 cells, 4 hours post compound addition; concentration which degrades 50% of the estrogen receptor
Below is a list of entries, each paired with its recorded pIC50 value.
Keep it numeric: pIC50 is minus log10 of the concentration in mol/L.

Some solved entries appear below for comparison.
Chemical Smiles: O=C(O)c1ccc2c(c1)CCCC(c1ccc(C(F)F)cc1OC(F)(F)F)=C2c1ccc(C=C2CN(CCCF)C2)cc1
Property Name: pIC50
Reported Measurement: 9.30
--
Chemical Smiles: Cc1ccc(C2=C(c3ccc(C=C4CN(CCCF)C4)cc3)c3ccc(C(=O)O)cc3CCC2)c(C(F)F)c1
Property Name: pIC50
Reported Measurement: 9.30
--
Chemical Smiles: O=C(O)c1ccc2c(c1)CCCC(c1cccc3c1OCCC3)=C2c1ccc(C=C2CN(CCCF)C2)cc1
Property Name: pIC50
Reported Measurement: 9.00
--
Chemical Smiles: CC1(C)CCC(C2=C(c3ncc(C=C4CN(CCCF)C4)cc3F)c3ccc(C(=O)O)cc3CCC2)CC1
Property Name: pIC50
Reported Measurement: 9.10

Q) Give the reported pIC50 for this compound. CCc1ccc(C2=C(c3ccc(C=C4CN(CCCF)C4)cc3)c3ccc(C(=O)O)cc3CCC2)c(C(F)(F)F)c1
A) 9.70

Q) Give the reported pIC50 for this compound. Cc1cc(C2=C(c3ccc(C=C4CN(CCCF)C4)cc3)c3ccc(C(=O)O)cc3CCC2)ccc1C(F)(F)F
A) 8.92

Q) Give the reported pIC50 for this compound. O=C(O)c1ccc2c(c1)CCCC(c1cccc(Cl)c1OC(F)(F)F)=C2c1ccc(C=C2CN(CCCF)C2)cc1
A) 9.15
